# assay.protocol: IUF_NPC2a_radial_glia_migration_120hr: Leibniz Research Institute for Environmental Medicine (IUF) 120-hour Neural Progenitor Cell Migration Assay for Radial Glia Migration (NPC2a) (AID 2284298)
The source made the active and inactive calls. Rule for the calls: active = hit-call score of the fitted dose curve at least 0.9, where 1 is the maximum; inactive = score below 0.9.
Classes used: True (active), False (inactive)

smiles.string	assigned.label
OCCOCCO	False
[O-][Cl+]O	False
COP(=S)(OC)SCN1C(=O)c2ccccc2C1=O	False
COC(=O)Nc1nc2ccccc2[nH]1	True
O=P(OCCCl)(OCCCl)OCCCl	False
CCC[CH2][Sn]([Cl])([CH2]CCC)[CH2]CCC	True

----------
# assay.protocol: ATG_AP_1_CIS: Attagene CIS-FACTORIAL HepG2 Assay for human Activator Protein 1 (AP-1) (AID 2282931)
# study.conditions: HepG2 Attagene cis-factorial AP-1 reporter mRNA; actives raise or lower the signal
# Description: ATG_CIS is a cell-based, multiplexed-readout assay that uses HepG2, a human liver cell line, with measurements taken at 24 hours after chemical dosing in a 24-well plate.ATG_AP_1_CIS is one of 52 assay component(s) measured or calculated from the ATG_CIS assay. […] This assay endpoint, ATG_AP_1_CIS, was analyzed with bidirectional fitting relative to DMSO as the negative control and baseline of activity. […]
Active and inactive are the calls of the source. Rule for the calls: active = hit-call score of the fitted dose curve at least 0.9, where 1 is the maximum; inactive = score below 0.9.
Classes used: active, inactive

molecule	assigned.label
Nc1ccc([N+](=O)[O-])cc1	inactive
O=Cc1ccco1	inactive
CC(C)COC(=O)c1ccccc1C(=O)OCC(C)C	active
Oc1ccccc1Cl	inactive
Nc1ccc(N=Nc2ccccc2)cc1	inactive
Clc1ccc(Cl)c(Cl)c1	inactive
Clc1ccc(C(c2ccc(Cl)cc2)C(Cl)Cl)cc1	active
c1ccc(NNc2ccccc2)cc1	inactive
CN(C)c1ccccc1	inactive
COC(=O)Nc1nc2ccccc2[nH]1	inactive
O=C(Nc1ccccc1)c1ccccc1I	inactive
CN(C)[C@@H]1C(=O)C(C(N)=O)=C(O)[C@@]2(O)C(=O)C3=C(O)c4c(O)cccc4[C@@](C)(O)[C@H]3C[C@@H]12	inactive
CCCCCCCCCCCCCN1CC(C)OC(C)C1 (centres undefined)	active
Cc1ccc(N)c(N)c1	active
